Target: UniProt:O14757
Sequence (O14757 whole entry): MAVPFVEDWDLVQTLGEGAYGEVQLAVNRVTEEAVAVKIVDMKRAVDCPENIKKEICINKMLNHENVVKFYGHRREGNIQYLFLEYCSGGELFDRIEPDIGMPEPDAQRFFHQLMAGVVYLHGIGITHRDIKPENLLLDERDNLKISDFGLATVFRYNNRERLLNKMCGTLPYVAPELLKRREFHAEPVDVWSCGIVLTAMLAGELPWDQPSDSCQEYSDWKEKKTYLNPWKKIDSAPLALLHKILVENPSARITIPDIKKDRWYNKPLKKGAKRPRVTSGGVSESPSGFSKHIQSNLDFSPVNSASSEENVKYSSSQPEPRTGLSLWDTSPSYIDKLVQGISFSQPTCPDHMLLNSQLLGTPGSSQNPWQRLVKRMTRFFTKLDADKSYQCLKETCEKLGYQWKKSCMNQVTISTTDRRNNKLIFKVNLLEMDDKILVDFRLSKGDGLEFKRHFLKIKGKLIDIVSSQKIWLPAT
Assay: Chk1 kinase inhibition assay (33P phosphorylation of Chktide, filter plate)
Assay type: biochemical
Details: 0.01 mM ATP, 11 nM GST-Chk1, 40 minutes at 30° C.; read-out: Chk1 IC50
Overview of reported IC50 across a group of molecules:

>  <MOLECULE>
CC(C)c1cnn2c(Nc3ccc(S(=O)(=O)N(C)C)cc3)cc(N3CCCC3CO)nc12 (centres unmarked)

>  <TARGET UNDER TEST>
UniProt:O14757

>  <IC50>
> 200 µM

$$$$
>  <MOLECULE>
CC(C)Oc1cc(Nc2ccc(S(=O)(=O)N(C)C)cc2)n2ncc(C(C)C)c2n1

>  <TARGET UNDER TEST>
UniProt:O14757

>  <IC50>
> 200 µM

$$$$
>  <MOLECULE>
CCNc1cc(Nc2ccc(S(C)(=O)=O)cc2)n2ncc(C(C)C)c2n1

>  <TARGET UNDER TEST>
UniProt:O14757

>  <IC50>
> 200 µM

$$$$
>  <MOLECULE>
CN(C)S(=O)(=O)c1ccc(Nc2cc(O[C@H]3CC[C@H](N)CC3)nc3c(Cl)cnn23)cc1

>  <TARGET UNDER TEST>
UniProt:O14757

>  <IC50>
5 µM

$$$$
>  <MOLECULE>
CC(C)c1cnn2c(Nc3ccc(S(=O)(=O)N(C)C)cc3)cc(N[C@H]3CC[C@H](N(C)C)CC3)nc12

>  <TARGET UNDER TEST>
UniProt:O14757

>  <IC50>
12 µM

$$$$
>  <MOLECULE>
COCCN(C)S(=O)(=O)c1ccc(Nc2cc(Cl)nc3c(C(C)C)cnn23)cc1

>  <TARGET UNDER TEST>
UniProt:O14757

>  <IC50>
> 200 µM

$$$$

[ask] Which IC50 reading was recorded for the molecule CC(C)COc1cc(Nc2ccc(S(=O)(=O)NCCN(C)C)cc2)n2ncc(C(C)C)c2n1 ?
[reply] 5.42 µM

[ask] Which IC50 reading was recorded for the molecule CCOC(=O)c1cc(Nc2ccc(S(=O)(=O)N(C)C)cc2)n2ncc(C(C)C)c2n1 ?
[reply] > 200 µM

Origin of values: patent US20070179161A1
